- system_under_test: CpLIP2 lipase (Candida parapsilosis, UniProt Q8NIN8)
- Sequence (Q8NIN8 entry or part of it): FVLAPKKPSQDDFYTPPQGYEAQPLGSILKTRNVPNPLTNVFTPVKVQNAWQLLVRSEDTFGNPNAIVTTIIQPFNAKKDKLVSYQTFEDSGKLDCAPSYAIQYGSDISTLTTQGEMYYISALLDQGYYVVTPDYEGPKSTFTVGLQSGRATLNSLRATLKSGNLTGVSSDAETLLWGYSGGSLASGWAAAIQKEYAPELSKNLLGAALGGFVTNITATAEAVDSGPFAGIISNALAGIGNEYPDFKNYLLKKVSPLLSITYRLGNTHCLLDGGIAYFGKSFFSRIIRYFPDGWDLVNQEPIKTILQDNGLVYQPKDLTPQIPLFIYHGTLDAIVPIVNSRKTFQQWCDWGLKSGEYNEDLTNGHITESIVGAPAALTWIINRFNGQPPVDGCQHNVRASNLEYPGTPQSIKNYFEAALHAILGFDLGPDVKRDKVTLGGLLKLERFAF
- method: Quenching of CpLIP2 intrinsic tryptophan fluorescence by flavonols (Stern–Volmer, Lehrer, van't Hoff analysis)
- Format: binding
- condition_notes: 308 K; Lehrer equation
Known fa (fraction of accessible W residues to the quencher) of a selection of compounds
Lab note: record the figure alone, no unit after it.

compound: O=c1c(O)c(-c2ccc(O)cc2)oc2cc(O)cc(O)c12 [KAE, kaempferol]
data_value: 0.43
//
compound: O=c1c(O)c(-c2ccc(O)c(O)c2)oc2cc(O)cc(O)c12 [QUE, quercetin]
data_value: 0.52

Item: O=c1c(O)c(-c2ccccc2)oc2cc(O)cc(O)c12 [GAL, galangin] | fa (fraction of accessible W residues to the quencher): 0.34

Item: O=c1c(O)c(-c2cc(O)c(O)c(O)c2)oc2cc(O)cc(O)c12 [MYR, myricetin] | fa (fraction of accessible W residues to the quencher): 0.32
